PDI: recorded values
assay: LNP particle size and PDI (Malvern ZetaSizer); assay type: physicochemical; conditions: LNP of Compound:cholesterol:DSPC:DMG-PEG2000=50:38.5:10:1.5 encapsulating mRNA

# input Value lookup for PDI; key = CCCCCCCCCCCNC(=O)CCCCCC1(CCCCCCCC(=O)NC(CCCCCCCC)CCCCCCCC)OCC(CCN(C)C)O1 (stereo not shown)
# output 0.05

# input What does the record list as PDI for CCCCCCCCC(CCCCCC)C(=O)OCCCCCCC1(CCCCCCOC(=O)C(CCCCCC)CCCCCCCC)OCC(CCN(C)C)O1 (stereo not shown) ?
# output 0.3138

Next:
# input Which PDI is listed for CCCCCCCCCCCOC(=O)CCCCCC1(CCCCCCCC(=O)OC(CCCCCCCC)CCCCCCCC)OCC(CCCN(C)C)O1 (stereo not shown) ?
# output 0.16

# input Give the measured PDI of CCCCCCCCCCCOC(=O)CCCCCN(CCO)CCCCCCCC(=O)OC(CCCCCCCC)CCCCCCCC [SM-102, reference compound] .
# output 0.07

----------
experiment: LNP particle size and PDI (Malvern ZetaSizer); type: physicochemical; settings: LNP of Compound:cholesterol:DSPC:DMG-PEG2000=50:38.5:10:1.5 encapsulating mRNA
reported_property: Particle Size
Please answer in the form of a number followed by its unit of measurement.

# input For CCCCCCCCCCCOC(=O)CCCCCN(CCO)CCCCCCCC(=O)OC(CCCCCCCC)CCCCCCCC [SM-102, reference compound] , what is its reported Particle Size?
# output 74.80 nm

# input Look at this compound and give its reported Particle Size. CCCCCCCCCCCNC(=O)CCCCCC1(CCCCCCCC(=O)NC(CCCCCCCC)CCCCCCCC)OCC(CCN(C)C)O1 (centres unmarked)
# output 125.0 nm

----------
assay: LNP particle size and PDI (Malvern ZetaSizer); format: physicochemical; details: LNP of Compound:cholesterol:DSPC:DMG-PEG2000=50:38.5:10:1.5 encapsulating mRNA
reported_property: Particle Size (nm)
Please reply with the bare figure in nm and do not write the unit itself.

# input Need Particle Size of CCCCCCCCCCCOC(=O)CCCCCC1(CCCCCCCC(=O)OC(CCCCCCCC)CCCCCCCC)OCC(CCCCN(C)C)O1 (stereo not shown) , thanks.
# output 118.1

----------
assay: LNP particle size and PDI (Malvern ZetaSizer); format: physicochemical; details: LNP of Compound:cholesterol:DSPC:DMG-PEG2000=50:38.5:10:1.5 encapsulating mRNA
# Particle Size values compiled below
Answer with a number only, understood to be in nm.

# input Requested field: Particle Size. Item: CCCCCCCCCCC(=O)OCCCCCCC1(CCCCCCCC(=O)OC(CCCCCCCC)CCCCCCCC)OCC(CN(C)C)CO1 (stereo not shown)
# output 69.03

# input Entry CCCCCCCCCCCOC(=O)CCCCCC1(CCCCCC(=O)OCCCCCCCCCCC)OCC(CCN(C)C)O1 (stereo not shown) has what Particle Size?
# output 110.3

# input Fill in the blank: the reported Particle Size of CCCCCCCCCCCOC(=O)CCCCCC1(CCCCCCCC(=O)OC(CCCCCCCC)CCCCCCCC)OCC(CCN(C)CCC)O1 (stereo not shown) is ____.
# output 61.73

# input Particle Size for CCCCCC(CCCCC)CCOC(=O)CCCCCCCC1(CCCCCCCC(=O)OCCC(CCCCC)CCCCC)OC[C@H](CCN(C)C)O1 [Compound 20A] ?
# output 85.64

# input Please look up its Particle Size: CCCCCCCCC(CCCCCCCC)CC(=O)CCCCCCCC1(CCCCCCCC(=O)OC(CCCCCCCC)CCCCCCCC)OCC(CCN(C)C)O1 (stereo not shown)
# output 69.23

# input Field request: Particle Size | item: CCCCCCCCCCCOC(=O)CCCCCC1(CCCCCCCC(=O)OC(CCCCCCCC)CCCCCCCC)OCC(CCN(C)C)O1 (stereo not shown)
# output 70.27

# input Particle Size for CCCCC/C=C\C/C=C\CCCCCCCCC(CCCCCCCC/C=C\C/C=C\CCCCC)OC(=O)CCCN(C)C [MC3, reference compound] ?
# output 72.70
